Can you tell me Cl for the items I'm about to list?
species on record: Rattus norvegicus; test: Open TG-GATES - Regimen: Daily Repeat; assay type: toxicity, organism-based, Sprague-Dawley; design: regimen Daily Repeat, gender Male, age 6 weeks; settings: in vivo, po, 0 mg/kg, […], tissue Plasma, route gavage, dose level Control, time 7 day
Give bare numbers, in meq/L.

CNC(=C[N+](=O)[O-])NCCSCc1ccc(CN(C)C)o1    103.8
Cc1nnc2n1-c1ccc(Cl)cc1C(c1ccccc1Cl)=NC2    105.8
CCOc1ccc(NC(C)=O)cc1    105
CC(C)NNC(=O)c1ccncc1    106.4
CCCc1cc(=O)[nH]c(=S)[nH]1    106.2

Working through the 5 molecules below one at a time, give Cl for each.
1. Nc1c2c(nc3ccccc13)CCCC2
2. CN(C)CCC(c1ccc(Cl)cc1)c1ccccn1 (stereo not drawn)
3. NC1=NC(=O)C(c2ccccc2)O1 (stereo not drawn)
4. Brc1ccccc1
5. O=C(OC[C@H]1O[C@@H](OC(=O)c2cc(O)c(O)c(OC(=O)c3cc(O)c(O)c(O)c3)c2)[C@H](OC(=O)c2cc(O)c(O)c(OC(=O)c3cc(O)c(O)c(O)c3)c2)[C@@H](OC(=O)c2cc(O)c(O)c(OC(=O)c3cc(O)c(O)c(O)c3)c2)[C@@H]1OC(=O)c1cc(O)c(O)c(OC(=O)c2cc(O)c(O)c(O)c2)c1)c1cc(O)c(O)c(OC(=O)c2cc(O)c(O)c(O)c2)c1

107.4
104.8
104.4
107
103.2

Working through the 3 molecules below one at a time, give Cl for each.
1. CN/C(=N/CCSCc1nc[nH]c1C)NC#N
2. COC(=O)C1=C(C)NC(C)=C(C(=O)OC)C1c1ccccc1[N+](=O)[O-]
3. CN1C(=O)CCS(=O)(=O)C1c1ccc(Cl)cc1 (stereo not drawn)

1. 103.2
2. 106.4
3. 107.8

Every entry's value here was drawn from ChEMBL document CHEMBL3885861.
